log10 of Ki reference
target_desc: Cannabinoid receptor 1 (Rattus norvegicus, UniProt P20272)
Sequence (P20272 whole entry): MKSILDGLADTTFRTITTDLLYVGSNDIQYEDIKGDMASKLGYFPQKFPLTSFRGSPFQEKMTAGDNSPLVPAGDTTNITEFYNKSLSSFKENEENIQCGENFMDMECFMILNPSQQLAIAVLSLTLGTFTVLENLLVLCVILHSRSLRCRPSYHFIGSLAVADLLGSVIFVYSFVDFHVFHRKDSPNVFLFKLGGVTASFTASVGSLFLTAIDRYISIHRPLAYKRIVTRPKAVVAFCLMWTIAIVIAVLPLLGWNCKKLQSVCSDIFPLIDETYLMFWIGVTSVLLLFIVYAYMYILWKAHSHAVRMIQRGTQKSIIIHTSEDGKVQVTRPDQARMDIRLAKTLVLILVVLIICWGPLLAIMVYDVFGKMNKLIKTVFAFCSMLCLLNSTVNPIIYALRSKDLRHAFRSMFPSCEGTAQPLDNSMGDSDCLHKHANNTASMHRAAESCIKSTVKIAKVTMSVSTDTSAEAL
procedure_summary: Displacement of [3H]-CP55940 from CB1 receptor in rat brain homogenate after 1.5 hrs by microbeta liquid scintillation counting analysis
Assay type: tissue-based
measurement_conditions: read-out: Ki
metric: log10 of Ki (log10 of the value in nM)

CCCCCn1c2ccccc2c2cc(C(=O)c3ccccc3)ccc21    2.46
CCCCCn1c2ccccc2c2cc(C(=O)OCc3ccncc3)ccc21    2.03
CCCCCn1c2ccccc2c2cc(C(=O)NC34CC5CC(CC(C5)C3)C4)ccc21    3.16
CCCCCn1c2ccccc2c2cc(C(=O)N(CC)CC)ccc21    2.02
CCCCCCn1c2ccccc2c2cc(C(=O)N3CCCCC3)ccc21    2.38
CS(=O)(=O)NCCCn1c2ccccc2c2cc(C(=O)N3CCCCC3)ccc21    3.17
O=C(c1ccc2c(c1)c1ccccc1n2Cc1ccncc1)N1CCCCC1    2.59
CCCCn1c2ccccc2c2cc(C(=O)N3CCCCC3)ccc21    1.80
O=C(c1ccc2c(c1)c1ccccc1n2CCCN1CCS(=O)(=O)CC1)N1CCCCC1    3.38
O=C(c1ccc2c(c1)c1ccccc1n2CCCCl)N1CCCCC1    2.09
CCCCCn1c2ccccc2c2cc(C(=O)NN3CCCCC3)ncc21    2.55
CCCCCn1c2ccccc2c2cc(C(=O)CN3CCN(C)CC3)ccc21    3.18
O=C(c1ccc2c(c1)c1ccccc1n2Cc1ccccn1)N1CCCCC1    2.61
